Test: yeast display, Sf9 membrane polyspecificity reagent, FACS + sequencing; frameworks hold sequencing errors
Measurement Name: polyreactivity (PSR sort gate)

Worked cases, answers included:
{"Sequence Record": "QVQLVESGGGLVQAGGSLRLSCAASGSTFVRYAMGWYRQAPGKERELVAAIDGGGTTKYADSVKGRFTISRDNAKNTVYLQMNSLKPEDTSVYYCAADQVWGYDSWGQGTQVTVSS", "polyreactivity (PSR sort gate)": "low polyreactivity"}
{"Sequence Record": "QVQLVESGGGLVQAGGSLRLSCAASGRTSVRYAMGWYRQAPGKERELVAAISWSGGSTYYADSVKGRFTISRDNAKNTVYLQMNSLKPEDTAVYYCAAERGPTNHTSYPWYEYDYWGQGTQVTVSS", "polyreactivity (PSR sort gate)": "low polyreactivity"}
{"Sequence Record": "QVQLVESGGGLVQAGGSLRLSCAASGNIFLYYAMGWYRQAPGKEMELVAAISWSGSSTYYADSVKGRFTISRDNAKNTVYLQMNSLKPEDTAVYYCNKRATRSRRRGYWGQGTQVTVSS", "polyreactivity (PSR sort gate)": "low polyreactivity"}
{"Sequence Record": "QVQLVESGGGLVQAGGSLRLSCAASGFIFTRYAMGWYRQAPGKERELVAAISASGGSTYYADSVKGRFTISRDNAKNTVYLQMKSLKPEETAVYYCAAVPYRYTYDYWGQGTQLTVSS", "polyreactivity (PSR sort gate)": "high polyreactivity"}
{"Sequence Record": "QVQLVESGGGLVQAGGSFRLSCAASGSIFVVYDMGCYRQAPGKERELVAAITSGGSTYYADSVKGRFTISRDNAKNTVYLQMNSLKPEDTAVYYCAADSYEGYDYWGQGTQVTVSS", "polyreactivity (PSR sort gate)": "low polyreactivity"}
{"Sequence Record": "QVQLVESGGGLVQAGGSLRLSCAASGRTIDHYAMGWYRQAPGKERELVAAISTTGGSTYYADSVKGRFTISRDNAKNTVYLQMNSLKPEDTAVYYCAARGLRTGGYWGQGTQVTVSS", "polyreactivity (PSR sort gate)": "high polyreactivity"}

Kindly review the next sequence as well.
sequence QVQLVESAGGLVQAGGSLRLSCAASGSTFYRYAMGGSRQAPGKERELVAAISSSGGRTYYADSVKGRFTISRDNAKNTVYLQMNSLKPEDTAVYFCATRVGDFHRGKRKRYEYWGQGTQVTVSS , polyreactivity (PSR sort gate) observed: high polyreactivity

---

Test: yeast display, Sf9 membrane polyspecificity reagent, FACS + sequencing; frameworks hold sequencing errors
Measurement Name: polyreactivity (PSR sort gate)

Please review the entries below; each comes with its answer.
{"Sequence Record": "QVQLVESGGGLFQAGGSLRLSCAASGRIFQGYVMGRYRQAPGKERELVAVISRRGGITNYADSVKGRFTISSDNAKNSVYLQIYRLKPEDTAVYYCNSVTRVYNNGQYGYWGQGTQVTVSS", "Obs Value": "high polyreactivity"}
{"Sequence Record": "QVQLVESGGGLVQAGGSLRLSCAASGSTFGVNTMGWYRQAPGKERELVAAITKSGGSTYYADSVKGRFTISRDNAKNTVYLQMNSLKPEDTAVYYCNTDYGRYLYYRYGYWGQGTQVTVSS", "Obs Value": "low polyreactivity"}
{"Sequence Record": "QVQLVESGGGLVQAGGSLPLSCAASGRIFAFNVMGWYRQAPGKERELVAAISTRDGSTYYADSVKGRFTISRDNAKNTVYLQMNSLTPEDTAVYYCNAVVRYYDWGYWDYDYWGQGTQVTVSS", "Obs Value": "low polyreactivity"}
{"Sequence Record": "QVQLVESGGGLVQAGGSLRLSCAASGNTLIVNAMGWYRQAPGKERELVAAITRDGRTNYADSVKGRFTISRDNAKNTFYLQMNSLKPEDTAVYYCNALSADWFPEEDYWGQGTQVTVSS", "Obs Value": "low polyreactivity"}

// next item, polyreactivity (PSR sort gate) requested
Lab note: HVQLVESGGGLVQAGGSLRLSCAASGSIFAQYAMGWYRQAPRKDRELLAAISRSTGRTYYADSVKGRFTISRDNAKNTVYLQMNSLKPEDNAVYYWNVVANRALSRSGYDYWGQGTQVTVSS gave polyreactivity (PSR sort gate) of high polyreactivity
